# Protocol details: Compound cytotoxicity in uninfected cells (same assay plate)
# Assay type: cell-based
# Condition context: human, uninfected CEM-SS cells; read-out: Virus Replication CC50
Please use 1.0 for CC50 under 20 µM and 0.0 for everything else, ties included.

In [3]: df
Out[3]:
                                   compound  label_value
0  Cc1cc(O)c(=O)c(O)c2c1CC(C(C)(O)CS(=O)(=O)c1ccccc1)CC2 (mixture of isomers)          0.0

*Q* Say whether its CC50 is strictly beneath 20 µM. Entry: CCSCC(C)(O)C1CCc2c(c(C)cc(O)c(=O)c2O)C1 (mixture of isomers)
*A* 0.0

*Q* Say whether its CC50 is strictly beneath 20 µM. Entry: Cc1cc(O)c(=O)c(O)c2c1CC(C(C)(O)CSc1ccccc1)CC2 (mixture of isomers)
*A* 1.0

*Q* Say whether its CC50 is strictly beneath 20 µM. Entry: C=C(C)[C@H]1CCc2c(c(C)cc(O)c(=O)c2O)C1 [Manicol, reference compound]
*A* 1.0

*Q* Say whether its CC50 is strictly beneath 20 µM. Entry: Cc1cc(O)c(=O)c(O)c2c1CC(C(C)(O)CNc1ccccc1)CC2 (mixture of isomers)
*A* 0.0

*Q* Say whether its CC50 is strictly beneath 20 µM. Entry: Cc1cc(O)c(=O)c(O)c2c1CC(C(C)NCc1ccccc1)CC2 (mixture of isomers)
*A* 1.0

*Q* Say whether its CC50 is strictly beneath 20 µM. Entry: Cc1cc(O)c(=O)c(O)c2c1CC(C(C)(O)CN1CCCCC1)CC2 (mixture of isomers)
*A* 0.0

*Q* Say whether its CC50 is strictly beneath 20 µM. Entry: Cc1cc(O)c(=O)c(O)c2c1CC(C(C)(O)CSCc1ccccc1)CC2 (mixture of isomers)
*A* 1.0

*Q* Say whether its CC50 is strictly beneath 20 µM. Entry: Cc1cc(O)c(=O)c(O)c2c1CC(C(C)O)CC2 (mixture of isomers)
*A* 0.0

*Q* Say whether its CC50 is strictly beneath 20 µM. Entry: CCS(=O)(=O)CC(C)(O)C1CCc2c(c(C)cc(O)c(=O)c2O)C1 (mixture of isomers)
*A* 1.0

*Q* Say whether its CC50 is strictly beneath 20 µM. Entry: Cc1cc(O)c(=O)c(O)c2c1CC(C(C)(O)CNCc1ccccc1F)CC2 (mixture of isomers)
*A* 0.0

*Q* Say whether its CC50 is strictly beneath 20 µM. Entry: Cc1cc(O)c(=O)c(O)c2c1CC(C(C)(O)Cn1ccnc1)CC2 (stereo not shown)
*A* 0.0

*Q* Say whether its CC50 is strictly beneath 20 µM. Entry: CCN(CC)CC(C)(O)C1CCc2c(c(C)cc(O)c(=O)c2O)C1 (mixture of isomers)
*A* 0.0
